FYI, the data here is from ChEMBL document CHEMBL1146887.

# assay.target: Kappa-type opioid receptor (Homo sapiens)
# test.protocol: Antagonist activity at human cloned kappa opioid receptor expressed in CHO cells assessed as inhibition of U69593-stimulated [35S]GTPgammaS binding in presence of 10 uM GDP
# Format: functional, cell-based
measured.metric: Ke (nM)
API: value field is a number in nM; no unit string.

Worked set:
C[C@@H](C(=O)N[C@@H]1C[C@@H]2C[C@](c3cccc(O)c3)(C1)[C@@H](C)CN2CCCc1ccccc1)c1ccccc1 : 8.1
C[C@H]1CN(CCCc2ccccc2)[C@@H]2C[C@@H](NC(=O)C3(c4cccs4)CCCC3)C[C@@]1(c1cccc(O)c1)C2 : 24

[ask] Item `C[C@H]1CN(CCCc2ccccc2)[C@@H]2C[C@@H](NC(=O)C3(c4ccc(F)cc4)CCCC3)C[C@@]1(c1cccc(O)c1)C2` has what recorded Ke?
[reply] 4.5

[ask] Item CC1CN(CCCc2ccccc2)[C@@H]2C[C@@H](NC(=O)C3(c4ccccc4)CCCC3)C[C@@]1(c1cccc(O)c1)C2 (single isomer, unassigned; (+)) has what recorded Ke?
[reply] 17.9

====

# assay.target: Delta-type opioid receptor (Homo sapiens)
# Sequence (P41143 whole entry): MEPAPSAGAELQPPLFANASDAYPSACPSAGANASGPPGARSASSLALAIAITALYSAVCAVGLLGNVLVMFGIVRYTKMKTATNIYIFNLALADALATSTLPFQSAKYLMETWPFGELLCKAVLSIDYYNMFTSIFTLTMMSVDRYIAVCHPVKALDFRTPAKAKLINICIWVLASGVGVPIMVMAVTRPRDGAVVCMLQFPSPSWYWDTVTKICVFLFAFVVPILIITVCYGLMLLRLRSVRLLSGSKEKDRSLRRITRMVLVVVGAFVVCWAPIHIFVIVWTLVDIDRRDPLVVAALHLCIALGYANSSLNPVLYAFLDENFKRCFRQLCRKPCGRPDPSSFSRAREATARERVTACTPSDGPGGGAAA
# test.protocol: Inverse agonist activity at human cloned delta opioid receptor expressed in CHO cells assessed as […] [35S]GTP-gamma-S binding in presence of 1 uM GDP
# Format: functional, cell-based
measured.metric: log10 IC50 (log10 of the value in nM)
Lab note - IC50 converted to log10 from values in nM.

Worked set:
Cc1ccccc1/C=C/CN1C[C@H](C)[C@@]2(c3cccc(O)c3)C[C@H](NC(=O)C3(c4ccccc4)CCCC3)C[C@@H]1C2 : -0.30
C[C@H]1CN(CCCc2ccccc2)[C@@H]2C[C@@H](NC(=O)C(C)(C)c3ccccc3)C[C@@]1(c1cccc(O)c1)C2 : -0.40

[ask] Item `C[C@H]1CN(CCOc2ccccc2)[C@@H]2C[C@@H](NC(=O)C(C)(C)c3ccccc3)C[C@@]1(c1cccc(O)c1)C2` has what recorded log10 IC50?
[reply] 0.15

[ask] Item `C[C@H]1CN(C)[C@@H]2C[C@@H](NC(=O)C3(c4ccccc4)CCCC3)C[C@@]1(c1cccc(O)c1)C2` has what recorded log10 IC50?
[reply] 1.98

[ask] Item `C[C@H]1CN(CCCc2ccccc2)[C@@H]2C[C@@H](NC(=O)C3(c4ccc5ccccc5c4)CCCC3)C[C@@]1(c1cccc(O)c1)C2` has what recorded log10 IC50?
[reply] 0.89

====

# assay.target: Delta-type opioid receptor (Homo sapiens)
# test.protocol: Antagonist activity at human cloned delta opioid receptor expressed in CHO cells assessed as inhibition of DPDPE-stimulated [35S]GTP-gamma-S binding in presence of 10 uM GDP
# Assay type: functional, cell-based
measured.metric: Ke
Number first, unit second.

Worked set:
C[C@H]1CN(CCCc2ccccc2)[C@@H]2C[C@@H](NC(=O)C3(c4ccccc4)CCC3)C[C@@]1(c1cccc(O)c1)C2 : 0.17 nM
COc1ccc(C2(C(=O)N[C@@H]3C[C@@H]4C[C@](c5cccc(O)c5)(C3)[C@@H](C)CN4CCCc3ccccc3)CCCC2)cc1 : 0.67 nM

We next turn to a different compound, shown below.
[ask] Item `C[C@H]1CN(CCCc2ccccc2)[C@@H]2C[C@@H](NC(=O)C3(c4cccc5ccccc45)CCCC3)C[C@@]1(c1cccc(O)c1)C2` has what recorded Ke?
[reply] 1.42 nM
